B1: Max-interacting protein 1, residues 70 to 120; numbered along this chain, P50539 (parent)
chain: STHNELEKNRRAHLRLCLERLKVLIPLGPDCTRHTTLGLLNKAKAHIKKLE

- Variants of: B1
- assay: abundance fitness (aPCA) (normalised: wild type 0, dead -1); higher = more abundant; growth selection in yeast, the domain comes from the species named
- condition info: Homo sapiens
The entries below are paired with their reported abundance fitness.

{"columns": ["variant annotation", "abundance fitness"],
 "data": [
  ["V23T", 0.274],
  ["P29I", 0.506],
  ["I25S", -0.39],
  ["N4F", -0.713],
  ["L27P", 0.359],
  ["P26T", 0.369],
  ["P29Q", 0.028],
  ["T35K", 0.218],
  ["H3N", -0.162],
  ["E51W", -0.059],
  ["P29M", 0.282]
]}
